Biological target: T1, rhesus serum albumin (rhesus, UniProt Q28522 17-600)
T1 construct: also called RhSA; Rh-SA
T1 sequence (Q28522 17-600 limits assumed): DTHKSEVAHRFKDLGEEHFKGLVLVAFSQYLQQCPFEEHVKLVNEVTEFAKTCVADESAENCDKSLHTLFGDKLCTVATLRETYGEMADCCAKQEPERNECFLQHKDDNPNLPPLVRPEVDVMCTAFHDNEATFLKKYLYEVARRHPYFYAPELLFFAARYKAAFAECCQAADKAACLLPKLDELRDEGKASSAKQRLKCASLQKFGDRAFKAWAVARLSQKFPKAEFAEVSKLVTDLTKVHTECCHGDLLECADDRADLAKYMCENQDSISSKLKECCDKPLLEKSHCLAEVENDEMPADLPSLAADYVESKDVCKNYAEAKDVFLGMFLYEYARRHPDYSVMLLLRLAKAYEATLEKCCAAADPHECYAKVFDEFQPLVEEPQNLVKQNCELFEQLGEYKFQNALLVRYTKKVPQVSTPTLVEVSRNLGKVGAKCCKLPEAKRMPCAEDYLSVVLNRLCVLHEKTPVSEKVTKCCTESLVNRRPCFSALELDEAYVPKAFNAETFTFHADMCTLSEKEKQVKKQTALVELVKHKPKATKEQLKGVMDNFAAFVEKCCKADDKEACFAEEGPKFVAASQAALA
Assay: direct binding ELISA, albumin coated
Endpoint: pEC50
// scale note: pEC50 = -log10(conc_M); give the bare number

[
  {
    "Binder": "PCSK9-PKE2 tandem Adnectin w/ his tag 4472_C06 (designed binder, also called ATI-1574; ADX_4472_C06) MGVSDVPRDLEVVAATPTSLLISWDAPAEGYGYYRITYGETGGNSPVQEFTVPVSKGTATISGLKPGVDYTITVYAVEFDFPGAGYYHRPISINYRTEPSTPPTPSPSTPPTPSPSGVSDVPRDLEVVAATPTSLLISWDAPAVTVRYYRITYGREVQKYSDLGPLYIYQEFTVPGSKSTATISGLKPGVDYTITVYAVTGSGESPASSKPISINYRTEHHHHHH",
    "pEC50": 6.88
  },
  {
    "Binder": "PCSK9-PKE2 tandem 4472_A04 (designed binder, not shown: The inter-domain linker; In the real molecule the two parts below are one polypeptide joined by this linker) PCSK9 domain: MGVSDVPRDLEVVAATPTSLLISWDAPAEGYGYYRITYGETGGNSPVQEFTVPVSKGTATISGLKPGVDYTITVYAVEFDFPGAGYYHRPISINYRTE PKE2 domain: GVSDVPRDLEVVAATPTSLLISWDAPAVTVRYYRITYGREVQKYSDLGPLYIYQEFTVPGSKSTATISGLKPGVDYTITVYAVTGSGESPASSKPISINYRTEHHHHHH",
    "pEC50": 7.08
  }
]

Exam item: Return reported pEC50. Input binder: PCSK9-PKE2 tandem 4472_B05 (designed binder, not shown: small tags and cut ends, The two parts are one polypeptide in the real molecule, joined by the undisclosed linker O; they are given here as separate chains.) PCSK9 10Fn3: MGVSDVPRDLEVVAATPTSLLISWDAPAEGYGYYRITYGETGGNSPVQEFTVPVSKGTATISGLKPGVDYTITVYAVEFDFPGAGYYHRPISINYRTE PKE2 10Fn3: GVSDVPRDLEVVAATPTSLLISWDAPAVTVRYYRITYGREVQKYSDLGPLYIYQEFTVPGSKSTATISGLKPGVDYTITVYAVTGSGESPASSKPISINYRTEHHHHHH
Marked response: 7.23
